Values from ChEMBL document CHEMBL1821613

system: Flavin-dependent thymidylate synthase (Mycobacterium tuberculosis)
test_protocol: Inhibition of Mycobacterium tuberculosis ThyX-mediated dTMP synthesis using [5-3H]dUMP as substrate at 50 uM after 10 mins by liquid scintillation counting
readout_kind: inhibition

compound_smiles=CCCCCCCCCCC#Cc1cn([C@@H]2O[C@H](COP(=O)(O)O)[C@@H](O)[C@@H]2O)c(=O)[nH]c1=O system="Flavin-dependent thymidylate synthase (Mycobacterium tuberculosis)" readout_kind=inhibition recorded_measurement=19%
compound_smiles=CCCCNC(=O)CCCCC#Cc1cn([C@@H]2O[C@H](COP(=O)(O)O)[C@@H](O)[C@@H]2O)c(=O)[nH]c1=O system="Flavin-dependent thymidylate synthase (Mycobacterium tuberculosis)" readout_kind=inhibition recorded_measurement=21%
compound_smiles=CCCCCCCC(=O)NCC#Cc1cn([C@H]2C[C@H](O)[C@@H](COP(=O)(O)O)O2)c(=O)[nH]c1=O system="Flavin-dependent thymidylate synthase (Mycobacterium tuberculosis)" readout_kind=inhibition recorded_measurement=92.8%

Ask: Value lookup for inhibition; key = O=C(Cc1ccccc1)NCC#Cc1cn([C@H]2C[C@H](O)[C@@H](COP(=O)(O)O)O2)c(=O)[nH]c1=O
Reply: 86.9%

* * *

system: Flavin-dependent thymidylate synthase (Mycobacterium tuberculosis) (UniProt P9WG57)
Sequence (whole entry): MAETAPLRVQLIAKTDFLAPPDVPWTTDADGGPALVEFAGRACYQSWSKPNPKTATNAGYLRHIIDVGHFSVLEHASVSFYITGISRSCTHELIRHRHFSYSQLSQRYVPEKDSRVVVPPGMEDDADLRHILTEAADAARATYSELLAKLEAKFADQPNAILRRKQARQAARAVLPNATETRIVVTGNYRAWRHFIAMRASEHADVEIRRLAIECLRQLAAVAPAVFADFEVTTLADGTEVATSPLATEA
test_protocol: Inhibition of Mycobacterium tuberculosis ThyX-mediated dTMP synthesis using [5-3H]dUMP as substrate at 50 uM after 10 mins by liquid scintillation counting
Classification field: Condition met = inhibition at or over 80%; Condition not met = inhibition under 80%.

Below are worked cases with known answers.
compound_smiles=O=c1[nH]c(=O)n([C@H]2C[C@H](O)[C@@H](COP(=O)(O)O)O2)cc1F label="Condition met"
compound_smiles=CCCC(=O)NCC#Cc1cn([C@H]2C[C@H](O)[C@@H](COP(=O)(O)O)O2)c(=O)[nH]c1=O label="Condition not met"
compound_smiles=COc1cccc(-c2cn([C@H]3C[C@H](O)[C@@H](COP(=O)(O)O)O3)c(=O)[nH]c2=O)c1 label="Condition not met"
compound_smiles=CCCCCCCCCCC#Cc1cn([C@H]2C[C@H](O)[C@@H](COP(=O)(O)O)O2)c(=O)[nH]c1=O label="Condition met"
compound_smiles=CCCCCCCS(=O)(=O)NCC#Cc1cn([C@H]2C[C@H](O)[C@@H](COP(=O)(O)O)O2)c(=O)[nH]c1=O label="Condition met"

Ask: Decide: is the reported value of inhibition for O=c1[nH]c(=O)n([C@H]2C[C@H](O)[C@@H](COP(=O)(O)O)O2)cc1-c1ccc(F)cc1 equal to or greater than 80%?
Reply: Condition not met

Ask: Decide: is the reported value of inhibition for CCCCCC(=O)NCC#Cc1cn([C@H]2C[C@H](O)[C@@H](COP(=O)(O)O)O2)c(=O)[nH]c1=O equal to or greater than 80%?
Reply: Condition met

Ask: Decide: is the reported value of inhibition for CCCCCCNC(=O)NCC#Cc1cn([C@H]2C[C@H](O)[C@@H](COP(=O)(O)O)O2)c(=O)[nH]c1=O equal to or greater than 80%?
Reply: Condition met

Ask: Decide: is the reported value of inhibition for CCCCNC(=O)CCCCC#Cc1cn([C@H]2C[C@H](O)[C@@H](COP(=O)(O)O)O2)c(=O)[nH]c1=O equal to or greater than 80%?
Reply: Condition not met

* * *

Quick list: IC50 per entry.
system: Flavin-dependent thymidylate synthase (Mycobacterium tuberculosis, UniProt P9WG57)
Sequence (P9WG57 whole entry): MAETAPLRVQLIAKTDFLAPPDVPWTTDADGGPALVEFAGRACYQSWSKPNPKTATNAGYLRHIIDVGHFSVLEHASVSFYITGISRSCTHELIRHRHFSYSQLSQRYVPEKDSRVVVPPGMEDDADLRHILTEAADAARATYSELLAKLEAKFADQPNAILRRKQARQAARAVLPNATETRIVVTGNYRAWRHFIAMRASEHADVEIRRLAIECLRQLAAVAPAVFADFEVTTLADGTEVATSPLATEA

Below are worked cases with known answers.
compound_smiles=CCCCNC(=O)CCCCC#Cc1cn([C@@H]2O[C@H](COP(=O)(O)O)[C@@H](O)[C@@H]2O)c(=O)[nH]c1=O recorded_measurement="> 50 µM"
compound_smiles=CCCCCCCCCCC#Cc1cn([C@@H]2O[C@H](COP(=O)(O)O)[C@@H](O)[C@@H]2O)c(=O)[nH]c1=O recorded_measurement="> 50 µM"

Below: the item to evaluate.
Ask: Value lookup for IC50; key = COc1cccc(-c2cn([C@H]3C[C@H](O)[C@@H](COP(=O)(O)O)O3)c(=O)[nH]c2=O)c1
Reply: > 50 µM
